// provenance: PubChem BioAssay (NCI)

The compounds listed here are annotated with their GI50.
- Tested on: SNB-19 CNS
- assay: NCI tumour cell line growth inhibition, 48 h

Exam item: Return the recorded GI50 value; entry: CN(C)CCCNc1nc2ccccc2c2c(=O)c3cc(F)ccc3sc12
Marked response: 1.65 µM

Exam item: Input C=C1C(O)C2C(=C(CC(C)C)C13CC3)C(=O)C(C)(C)C2O (stereo not drawn) , output reported GI50.
Marked response: > 100 µM

Exam item: Give reported GI50 value for Cc1ccc(N(CC(=O)Nc2ccc(S(=O)(=O)NC3CCN(C)CC3)cc2)S(=O)(=O)c2ccc(Cl)cc2)cc1
Marked response: 4.27 µM

###

- Test system: HOP-62 NSCLC
- assay: NCI tumour cell line growth inhibition, 48 h
measurement name: TGI (µM)
The figure you give is taken to be in µM; do not add the unit.

{"molecule": "CCCCCCCCCCCCC(=O)CCCCC(=O)O", "assay system": "HOP-62 NSCLC", "TGI (µM)": 41.9}
{"molecule": "N#CC1=C(N)OC2=C(CCCc3ccc([N+](=O)[O-])cc32)C1c1ccccc1 (configuration not stated)", "assay system": "HOP-62 NSCLC", "TGI (µM)": 17.4}

Continue with the next molecule.
Exam item: Give me measured TGI, please, for this molecule: CN(C)CCNC(=O)c1cccc2nc3c(ccc4ccccc43)nc12
Marked response: 7.88

###

- Test system: CAKI-1 renal
- assay: NCI tumour cell line growth inhibition, 48 h
measurement name: TGI

{"compound": "CCOC(=O)c1c(Sc2ccc([N+](=O)[O-])cc2[N+](=O)[O-])nc2c3ccccc3ccn12", "assay system": "CAKI-1 renal", "endpoint result": "> 100 µM"}
{"compound": "COc1cc(C2CC(c3ccc(SC)cc3)=NN2C(C)=O)cc(OC)c1OC (stereo not drawn)", "assay system": "CAKI-1 renal", "endpoint result": "70 µM"}

Exam item: // Input: N#Cc1cc(-c2ccnc(Nc3ccc(NC(=O)CCl)cc3)n2)ccc1N1CCCC1 . Output its TGI only.
Marked response: 6.77 µM

Exam item: Recall and state the measured TGI for CCOC(=O)/C=C1/Oc2ccccc2C1(C)O (stereo not drawn) .
Marked response: > 100 µM

Exam item: Consider the compound CO[C@@H](C)Cn1c(=O)n(C)c2cnc3ccc(-c4cncc(C(C)(C)O)c4)cc3c21 . State its measured TGI.
Marked response: 0.512 µM

Exam item: Entry O=c1c(-c2ccccc2)c(SCCN2CCCC2)n(-c2ccccc2)c(=S)n1-c1ccccc1 needs its TGI filled in; supply it.
Marked response: > 100 µM

Exam item: Answer with the recorded TGI for the compound listed here: [O-][n+]1c(-c2ccccc2)oc2ccccc21
Marked response: > 55.7 µM

Exam item: Fill in reported TGI for this entry: Nc1cnc(Nc2cccc3ccccc23)o1
Marked response: > 10 µM

Exam item: Hello, please tell me recorded TGI for this one: CCc1cccc(C(C)CC)c1NC(=O)CC1C(=O)Nc2ccccc2S1(=O)=O (stereo not drawn)
Marked response: 40.2 µM

Exam item: Give me measured TGI, please, for this compound: CC1(C)C(=NNC(=S)NN)C(C)(C)C1=NNC(=S)NN
Marked response: > 100 µM

Exam item: Return reported TGI. Input compound: Cc1ccc(N(CC(=O)Nc2ccc(S(=O)(=O)NC3CCN(C)CC3)cc2)S(=O)(=O)c2ccc(Cl)cc2)cc1
Marked response: 28.4 µM

Exam item: For Cn1c(C2CCCc3c2c2ccccc2n3C)cc2ccccc21 (stereo not drawn) , write its TGI.
Marked response: > 318 µM

Exam item: State, in one line, measured TGI of COc1ccc(/C=C/C(=O)c2c(O)c(C)c(O)c3c2OC2=CC(O)=C(C(C)=O)C(=O)[C@]23C)cc1
Marked response: 8.19 µM

Exam item: Using the record for Cc1cccc(NS(=O)(=O)c2ccc3c(c2)OCCOCCOCCOCCO3)c1 , state its measured TGI.
Marked response: > 100 µM

Exam item: Consider the compound COc1cc(/C=C2\CCC(C)(CN(C)C)C2=O)cc(OC)c1OC (stereo not drawn) and give its recorded TGI.
Marked response: > 100 µM

Exam item: Assign TGI to the following record: CN(C)/C=N/S(=O)(=O)c1nn2c(C=O)c(-c3ccccc3)nc2s1
Marked response: 8.68 µM

Exam item: Output measured TGI for this item: Cc1ccc(S(=O)(=O)N/N=C2/C3CCC(C3)C2c2ccccc2)cc1 (stereo not drawn)
Marked response: > 100 µM

Exam item: In one line, give reported TGI of the entry CC(C)(C)c1ccc2c(c1)OP1(Oc3cccc4cccnc34)(O2)Oc2ccc(C(C)(C)C)cc2O1 .
Marked response: > 23.5 µM

Exam item: For the compound CC(C)(C)[Si](C)(C)OC1(CCc2ccccc2OS(=O)(=O)C(F)(F)F)CCCC=C1COCc1ccccc1 (stereo not drawn) , give its measured TGI value.
Marked response: > 100 µM

Exam item: Please report TGI for the following compound: CCOC(=O)CNC(=O)C(CSCC1C(=O)Nc2ccccc21)NC(=O)CCC(N)C(=O)OCC (stereo not drawn)
Marked response: 2.4 µM

Exam item: For O=C(CCC(=O)Nc1ccc(Cl)c(Cl)c1)CC(=O)c1ccc(Cl)cc1 , write its TGI.
Marked response: > 100 µM

Exam item: Report TGI for CCCCCCCCCCCCC(=O)CCCCC(=O)O
Marked response: > 100 µM

Exam item: Consider the compound CC1(C)COC(c2ccccc2-c2ccccc2)=N1 . State its measured TGI.
Marked response: > 100 µM

###

- System: SN12C renal
- assay: NCI tumour cell line growth inhibition, 48 h
Recorded GI50 for the following compounds

{"compound": "COc1ccccc1/C=C/C(=O)c1ccc(Nc2nc(Nc3ccc(F)cc3)nc(Nc3ccc(F)cc3)n2)cc1", "endpoint result": "51.2 µM"}
{"compound": "COc1cc2c(Oc3ccc4[nH]c(C)cc4c3F)ncnc2cc1OCCCN1CCCC1", "endpoint result": "3.84 µM"}
{"compound": "COc1cc(Nc2ncc3c(C)nc(-c4cccc(C(F)(F)F)c4)n3n2)cc(OC)c1OC", "endpoint result": "3.54 µM"}

Exam item: Name the recorded GI50 of the compound listed here: NCCCNc1nc2ccccc2c2c(=O)c3cccc(F)c3sc12
Marked response: 1.28 µM

Exam item: Recall and state the measured GI50 for CN(C)CCNc1c2c(c(NCCN(C)C)c3c(CN(C)C)c[nH]c13)C(=O)c1ccccc1C2=O .
Marked response: 1.18 µM

Exam item: Please indicate GI50 recorded for CN(c1ccc(Cl)c(Cl)c1)c1cnc2cc(N)cc(N)c2n1
Marked response: 1.75 µM

Exam item: Could you please provide reported GI50 for Cc1cc2c(cc1O)[nH]c1cc3c(cc12)C=CC(C)(C)O3 ? Thanks!
Marked response: 6.32 µM

Exam item: Identify GI50 associated with the compound COc1cc(/C=C/c2cc(/C=C/c3ccc(O)c(OC)c3)n(C(=O)Cc3ccccc3)n2)ccc1O
Marked response: 1.53 µM

Exam item: Provide only the value of recorded GI50 for CO[C@H]1/C=C/[C@@](C)(O)/C=C/C(=O)O[C@H](C)[C@@H](C)CC/C=C/1C
Marked response: 17.6 µM

Exam item: Give reported GI50 value for CCCCc1ccc(NS(=O)(=O)c2cc3c4c(c2)CCN4C(=O)CC3)cc1
Marked response: 34.6 µM

Exam item: State, in one line, measured GI50 of COc1ccc(-c2cc(C(=O)N3N=C(c4ccc(N)cc4)CC3c3ccc(Cl)cc3)c3ccccc3n2)cc1 (configuration not stated)
Marked response: 4.27 µM

Exam item: Give reported GI50 value for CC(c1ccccc1)N1C(=O)CSC1=S (configuration not stated)
Marked response: 0.701 µM

Exam item: Provide measured GI50 value, entry: O=C(/C=C/c1c(-c2ccccc2)[nH]c2ccccc12)S(=O)(=O)c1ccccc1
Marked response: > 100 µM

Exam item: For CCCCN1C=CCN(CCCC)C1 , write its GI50.
Marked response: 71.7 µM

Exam item: Return GI50 (reported value) for this compound: CN(c1ccc(C(=O)O)cc1)c1cc(O/N=[N+](\[O-])N(C)C)c([N+](=O)[O-])cc1[N+](=O)[O-]
Marked response: 12.2 µM

Exam item: Look up and state reported GI50 for Nc1nc(SCc2ccccc2)nc2[nH]ncc12
Marked response: 16.9 µM

Exam item: Supply recorded GI50 for C=C(C)[C@@H]1/C=C(/C(C)C)CC[C@@]2(C)OC2CC[C@H](C)CC1=O (some centres not stated) here.
Marked response: 21 µM

###

- Tested on: NCI-H460 lung
- assay: NCI tumour cell line growth inhibition, 48 h
measurement name: TGI (µM)
Kindly answer with a numeric value in µM, unit omitted.

Use these answered entries as a reference point.
{"compound": "Nc1nc(SCc2ccccc2)nc2[nH]ncc12", "units of measure": "µM", "TGI": 29.4}
{"compound": "CC[C@@]1(O)C(=O)OCc2c1cc1n(c2=O)Cc2c-1nc1ccccc1c2/C=N/NC(=O)C[N+](C)(C)C", "units of measure": "µM", "TGI": 21.5}

Exam item: Determine its reported TGI: COc1cccc2c1C(=O)c1c(O)c3c(c(O)c1C2=O)C[C@@](O)(C(=O)CO)C[C@@H]3OC1CC(N(C)C)C(O)C(C)O1 (stereo not given in full)
Marked response: 0.0167

Exam item: Give TGI for COC1=CC(=O)c2c(c(-c3csc(C)n3)cn2C)C1=O
Marked response: 19.9

Exam item: Read the entry OCN(CO)c1ccc2c(c1)Cc1cc(F)ccc1-2 and write its reported TGI.
Marked response: 65.1

Exam item: Provide TGI value for the following compound: Cc1cc2c(cc1O)[nH]c1cc3c(cc12)C=CC(C)(C)O3
Marked response: 12.4

Exam item: Item COC1=C(C)C(=O)N2[C@@H]1[C@H](c1ccccc1)OC21C=CC(=O)C=C1 : provide TGI
Marked response: 21.8

Exam item: Dear colleague, please send me the reported TGI for [O-][n+]1c(-c2ccccc2)oc2ccccc21 when you can.
Marked response: 20.2

Exam item: Please give measured TGI of the following entry: COc1cc(/C=C/c2cc(/C=C/c3ccc(O)c(OC)c3)n(C(N)=O)n2)ccc1O
Marked response: 1.3
